The origin of these recorded values is ChEMBL document CHEMBL1122229.

# EXPERIMENTAL TARGET: Adrenergic receptor alpha-1 (Rattus norvegicus) (UniProt P15823+P23944+P43140)
# PROTOCOL SUMMARY: In vitro postsynaptic antagonist potency at alpha-1 adrenergic receptor in rat anococcygeus relative to compound 5 (RX781094)
# Format: functional
Just a reminder that ties go to n: only Antagonist potency strictly below 0.2 counts as y.

For orientation, consider the following solved cases.
- COMPOUND: "COc1ccc2c(c1)OC(C1=NCCN1)CO2 (stereo unspecified)"
  CLASS ASSIGNMENT: "n"
- COMPOUND: "Nc1noc(CC2COc3ccccc3O2)n1 (stereo unspecified)"
  CLASS ASSIGNMENT: "y"
- COMPOUND: "Clc1ccc2c(c1)OCC(C1=NCCN1)O2 (stereo unspecified)"
  CLASS ASSIGNMENT: "n"
- COMPOUND: "CC1CN=C(C2COc3ccccc3O2)N1 (stereo unspecified)"
  CLASS ASSIGNMENT: "n"
- COMPOUND: "COc1cccc2c1OC(C1=NCCN1)CO2 (stereo unspecified)"
  CLASS ASSIGNMENT: "n"
- COMPOUND: "c1ccc2c(c1)OCC(CC1=NCCN1)O2 (stereo unspecified)"
  CLASS ASSIGNMENT: "y"
- COMPOUND: "COc1cc2c(cc1OC)OC(C1=NCCN1)CO2 (stereo unspecified)"
  CLASS ASSIGNMENT: "y"
- COMPOUND: "N/C(=N\\CC(=O)O)C1COc2ccccc2O1 (stereo unspecified)"
  CLASS ASSIGNMENT: "y"

Input: Please let me know if CCn1ccnc1CC1COc2ccccc2O1 (stereo unspecified) [IMILOXAN] shows Antagonist potency below 0.2.
Output: y

Input: Input c1ccc2cc3c(cc2c1)OCC(C1=NCCN1)O3 (stereo unspecified)
Output: y

Input: Input N=C(C1COc2ccccc2O1)N1CCCCC1 (stereo unspecified)
Output: y

Input: Input Clc1cc2c(cc1Cl)OC(C1=NCCN1)CO2 (stereo unspecified)
Output: n

Input: Input CC1(C)CN=C(C2COc3ccccc3O2)N1 (stereo unspecified)
Output: y

Input: Input Cc1cc2c(cc1C)OC(C1=NCCN1)CO2 (stereo unspecified)
Output: n

Input: Input N=C(NCCc1ccccc1)C1COc2ccccc2O1 (stereo unspecified)
Output: y

Input: Input c1ccc2c(c1)OCC(c1nc3ccccc3[nH]1)O2 (stereo unspecified)
Output: y

Input: Input c1ccc2c(c1)OCC(C1=NCCCN1)O2 (stereo unspecified)
Output: y

Input: Input O=[N+]([O-])c1ccc2c(c1)OCC(C1=NCCN1)O2 (stereo unspecified)
Output: y

Input: Input CCCC/N=C(\NCCCC)C1COc2ccccc2O1 (stereo unspecified)
Output: y

Input: Input COCC/N=C(\N)C1COc2ccccc2O1 (stereo unspecified)
Output: y

---

# EXPERIMENTAL TARGET: Adrenergic receptor alpha-1 (Rattus norvegicus) (UniProt P15823+P23944+P43140)
# PROTOCOL SUMMARY: Ratio of presynaptic antagonist potency to postsynaptic antagonist potency
# Format: functional
Assign true (1) to entries whose Selectivity meets or exceeds 0.1; assign false (0) to the rest.

For orientation, consider the following solved cases.
- COMPOUND: "Oc1cccc2c1OC(C1=NCCN1)CO2 (configuration not stated)"
  CLASS ASSIGNMENT: "true (1)"
- COMPOUND: "Cc1ccc2c(c1)OCC(C1=NCCN1)O2 (configuration not stated)"
  CLASS ASSIGNMENT: "true (1)"

Input: Would you say COc1ccc2c(c1)OC(C1=NCCN1)CO2 (configuration not stated) shows Selectivity at minimum 0.1?
Output: false (0)

---

# Selectivity annotations
# EXPERIMENTAL TARGET: Adrenergic receptor alpha-1 (Rattus norvegicus) (UniProt P15823+P23944+P43140)
# PROTOCOL SUMMARY: Ratio of presynaptic antagonist potency to postsynaptic antagonist potency
# Format: functional
Answer with a bare number; do not write a unit.

Input: For the compound Cc1cc2c(cc1C)OC(C1=NCCN1)CO2 (centres undefined) , what Selectivity is on record?
Output: 0.1

Input: Input Fc1ccc2c(c1)OCC(C1=NCCN1)O2 (centres undefined)
Output: 0.1

Input: Input Clc1ccc2c(c1)OCC(C1=NCCN1)O2 (centres undefined)
Output: 0.01

Input: Input COc1cccc2c1OC(C1=NCCN1)CO2 (centres undefined)
Output: 0.14

Input: Input COc1cc2c(cc1OC)OC(C1=NCCN1)CO2 (centres undefined)
Output: 0.3

---

# EXPERIMENTAL TARGET: Adrenergic receptor alpha-1 (Rattus norvegicus) (UniProt P15823+P23944+P43140)
# PROTOCOL SUMMARY: Ratio of presynaptic antagonist potency to postsynaptic antagonist potency
# Format: functional
READOUT NAME: Selectivity
Answer with a bare number; do not write a unit.

These recorded examples may help you get a feel for the data.
- COMPOUND: "N=C(NCCc1ccccc1)C1COc2ccccc2O1 (centres undefined)"
  RECORDED NUMBER: 0.01
- COMPOUND: "CC1(C)CN=C(C2COc3ccccc3O2)N1 (centres undefined)"
  RECORDED NUMBER: 0.01
- COMPOUND: "CCCC/N=C(\\NCCCC)C1COc2ccccc2O1 (centres undefined)"
  RECORDED NUMBER: 0.01
- COMPOUND: "Clc1cc2c(cc1Cl)OC(C1=NCCN1)CO2 (centres undefined)"
  RECORDED NUMBER: 0.01
- COMPOUND: "c1ccc2c(c1)OCC(C1=NCCCN1)O2 (centres undefined)"
  RECORDED NUMBER: 0.1

Input: For the compound CC(C)(C)c1ccc2c(c1)OCC(C1=NCCN1)O2 (centres undefined) , what Selectivity is on record?
Output: 0.1

Input: Input c1ccc2cc3c(cc2c1)OCC(C1=NCCN1)O3 (centres undefined)
Output: 0.1

Input: Input O=[N+]([O-])c1cccc2c1OC(C1=NCCN1)CO2 (centres undefined)
Output: 0.22

Input: Input Brc1cc2c(cc1Br)OC(C1=NCCN1)CO2 (centres undefined)
Output: 0.01
